// reported viability at 72 h, 10 µM per item
Test: in vitro
Conditions: human, Relative MTT viability (%)
measure: viability at 72 h, 10 µM (%)

>  <compound>
O=C1c2ccccc2C(=O)c2c1ccc1nc(CCl)[nH]c21 [CL01]

>  <valueOperator>
<

>  <val>
50

$$$$
>  <compound>
O=C1c2ccccc2C(=O)c2c1ccc1nc(CN3CCN(c4ccccc4)CC3)[nH]c21 [CL27]

>  <valueOperator>
=

>  <val>
54.4

$$$$
>  <compound>
Nc1ccc2c(c1N)C(=O)c1ccccc1C2=O [1,2-diaminoanthraquinone, reference compound]

>  <valueOperator>
=

>  <val>
95.5

$$$$
>  <compound>
O=C1c2ccccc2C(=O)c2c1ccc1nc(CCN3CCN(c4ccccc4)CC3)[nH]c21 [CL37]

>  <valueOperator>
=

>  <val>
96.5

$$$$
>  <compound>
COc1cccc(N2CCN(Cc3nc4ccc5c(c4[nH]3)C(=O)c3ccccc3C5=O)CC2)c1 [CL32]

>  <valueOperator>
>

>  <val>
50

$$$$

* * *

Assay: MTT assay (relative cell survival), H1299
Details: human, H1299 non-small cell lung cancer cells (PhTERT-SEAP), Relative MTT viability (%), 10 μM

>  <molecule>
CN1CCN(Cc2nc3ccc4c(c3[nH]2)C(=O)c2ccccc2C4=O)CC1

>  <valueOperator>
<

>  <viability at 72 h, 10 µM [%]>
50

$$$$
>  <molecule>
O=C1c2ccccc2C(=O)c2c1ccc1nc(CNCc3cccc(C(F)(F)F)c3)[nH]c21

>  <valueOperator>
=

>  <viability at 72 h, 10 µM [%]>
110

$$$$
>  <molecule>
O=C1c2ccccc2C(=O)c2c1ccc1nc(CN3CCN(Cc4ccccc4)CC3)[nH]c21

>  <valueOperator>
>

>  <viability at 72 h, 10 µM [%]>
50

$$$$
>  <molecule>
O=C1c2ccccc2C(=O)c2c1ccc1nc(CN3CCCCCC3)[nH]c21

>  <valueOperator>
=

>  <viability at 72 h, 10 µM [%]>
85.1

$$$$
>  <molecule>
O=C(CCCl)Nc1ccc2c(c1NC(=O)CCCl)C(=O)c1ccccc1C2=O

>  <valueOperator>
<

>  <viability at 72 h, 10 µM [%]>
50

$$$$
>  <molecule>
CCN(C)Cc1nc2ccc3c(c2[nH]1)C(=O)c1ccccc1C3=O

>  <valueOperator>
>

>  <viability at 72 h, 10 µM [%]>
50

$$$$
>  <molecule>
O=C1c2ccccc2C(=O)c2c1ccc1nc(CN3CCN(c4ncccn4)CC3)[nH]c21

>  <valueOperator>
=

>  <viability at 72 h, 10 µM [%]>
73.7

$$$$
>  <molecule>
O=C1c2ccccc2C(=O)c2c1ccc1nc(CN3CCN(c4ccccc4F)CC3)[nH]c21

>  <valueOperator>
=

>  <viability at 72 h, 10 µM [%]>
76.7

$$$$
>  <molecule>
O=C1c2ccccc2C(=O)c2c1ccc1nc(CCCl)[nH]c21

>  <valueOperator>
=

>  <viability at 72 h, 10 µM [%]>
85.6

$$$$
>  <molecule>
CN(Cc1nc2ccc3c(c2[nH]1)C(=O)c1ccccc1C3=O)CC1OCCO1

>  <valueOperator>
=

>  <viability at 72 h, 10 µM [%]>
89.8

$$$$
>  <molecule>
COc1cccc(CN(C)Cc2nc3ccc4c(c3[nH]2)C(=O)c2ccccc2C4=O)c1

>  <valueOperator>
=

>  <viability at 72 h, 10 µM [%]>
97.6

$$$$
>  <molecule>
O=C1c2ccccc2C(=O)c2c1ccc1nc(CCN3CCN(Cc4ccccc4)CC3)[nH]c21

>  <valueOperator>
>

>  <viability at 72 h, 10 µM [%]>
50

$$$$
>  <molecule>
C=CCN1CCN(Cc2nc3ccc4c(c3[nH]2)C(=O)c2ccccc2C4=O)CC1

>  <valueOperator>
=

>  <viability at 72 h, 10 µM [%]>
44.8

$$$$
>  <molecule>
O=C1c2ccccc2C(=O)c2c1ccc1nc(CN3CCOCC3)[nH]c21

>  <valueOperator>
=

>  <viability at 72 h, 10 µM [%]>
70.8

$$$$
>  <molecule>
O=C1c2ccccc2C(=O)c2c1ccc1nc(CNCc3ccccc3C(F)(F)F)[nH]c21

>  <valueOperator>
=

>  <viability at 72 h, 10 µM [%]>
96.3

$$$$
>  <molecule>
O=C1c2ccccc2C(=O)c2c1ccc1nc(CN3CCC(CCCC4CCNCC4)CC3)[nH]c21

>  <valueOperator>
<

>  <viability at 72 h, 10 µM [%]>
50

$$$$
>  <molecule>
O=C1c2ccccc2C(=O)c2c1ccc1nc(CN3CCC4(CC3)OCCO4)[nH]c21

>  <valueOperator>
=

>  <viability at 72 h, 10 µM [%]>
79.2

$$$$
>  <molecule>
CCN1CCN(Cc2nc3ccc4c(c3[nH]2)C(=O)c2ccccc2C4=O)CC1

>  <valueOperator>
<

>  <viability at 72 h, 10 µM [%]>
50

$$$$
>  <molecule>
CN(C)Cc1nc2ccc3c(c2[nH]1)C(=O)c1ccccc1C3=O

>  <valueOperator>
>

>  <viability at 72 h, 10 µM [%]>
50

$$$$

* * *

Tested on: CCRF-CEM
Assay: NCI 60-cell drug screen, one dose
Type: cell-based, human
Conditions: Leukemia CCRF-CEM, 1.00E−5 Molar
Description: In brief, cellular protein levels were determined after 48 hours of drug exposure by sulforhodamine B colorimetry. The screening system in United State National Cancer Institute (NCI) consists of 60 kinds of different human cancer cells, which can be used to assay the growth-inhibiting ability or cell toxicity of a compound against various cancer and tumor at a certain concentration. […]
measure: Growth Percent (%)

>  <molecule>
CN(CCc1ccccn1)Cc1nc2ccc3c(c2[nH]1)C(=O)c1ccccc1C3=O

>  <measure>
Growth Percent

>  <val>
39.91

$$$$
>  <molecule>
O=C1c2ccccc2C(=O)c2c1ccc1nc(CN3CCCCC3)[nH]c21

>  <measure>
Growth Percent

>  <val>
102.47

$$$$
>  <molecule>
O=C1c2ccccc2C(=O)c2c1ccc1nc(CN3CCN(c4ccccc4)CC3)[nH]c21

>  <measure>
Growth Percent

>  <val>
74.42

$$$$
>  <molecule>
CCN(CC)Cc1nc2ccc3c(c2[nH]1)C(=O)c1ccccc1C3=O

>  <measure>
Growth Percent

>  <val>
47.88

$$$$
>  <molecule>
CN1CCN(Cc2nc3ccc4c(c3[nH]2)C(=O)c2ccccc2C4=O)CC1

>  <measure>
Growth Percent

>  <val>
34.45

$$$$

* * *

viability at 72 h, 10 µM for assorted compounds
Assay: MTT assay (relative cell survival), H1299
Conditions: human, H1299 non-small cell lung cancer cells (PhTERT-SEAP), Relative MTT viability (%), 10 μM

>  <compound>
O=C1c2ccccc2C(=O)c2c1ccc1nc(CNCc3ccc(C(F)(F)F)cc3)[nH]c21 [CL14]

>  <viability at 72 h, 10 µM>
10.6%

$$$$
>  <compound>
O=C1c2ccccc2C(=O)c2c1ccc1nc(CN3CCSCC3)[nH]c21 [CL22]

>  <viability at 72 h, 10 µM>
77.5%

$$$$
>  <compound>
O=C1c2ccccc2C(=O)c2c1ccc1nc(CN3CCN(c4ccccn4)CC3)[nH]c21 [CL28]

>  <viability at 72 h, 10 µM>
69.5%

$$$$
>  <compound>
CCN(CC)Cc1nc2ccc3c(c2[nH]1)C(=O)c1ccccc1C3=O [CL04]

>  <viability at 72 h, 10 µM>
> 50%

$$$$
>  <compound>
CC1CCN(Cc2nc3ccc4c(c3[nH]2)C(=O)c2ccccc2C4=O)CC1 [CL17]

>  <viability at 72 h, 10 µM>
110%

$$$$

* * *

Recorded measurements of viability at 72 h, 1 µM, one per entry
Assay: MTT assay (relative cell survival), H1299
Conditions: human, H1299 non-small cell lung cancer cells (PhTERT-SEAP), Relative MTT viability (%), 1 μM

>  <compound>
O=C1c2ccccc2C(=O)c2c1ccc1nc(CCCl)[nH]c21 [CL35]

>  <unitsLabel>
%

>  <viability at 72 h, 1 µM>
91.1

$$$$
>  <compound>
O=C1c2ccccc2C(=O)c2c1ccc1nc(CN3CCN(c4ccccn4)CC3)[nH]c21 [CL28]

>  <unitsLabel>
%

>  <viability at 72 h, 1 µM>
90.5

$$$$
>  <compound>
O=C1c2ccccc2C(=O)c2c1ccc1nc(CN3CCC(CCCC4CCNCC4)CC3)[nH]c21 [CL20]

>  <unitsLabel>
%

>  <viability at 72 h, 1 µM>
97

$$$$
>  <compound>
N#Cc1ccccc1N1CCN(Cc2nc3ccc4c(c3[nH]2)C(=O)c2ccccc2C4=O)CC1 [CL31]

>  <unitsLabel>
%

>  <viability at 72 h, 1 µM>
78.3

$$$$
>  <compound>
O=C(CCCl)Nc1ccc2c(c1NC(=O)CCCl)C(=O)c1ccccc1C2=O [CL34]

>  <unitsLabel>
%

>  <viability at 72 h, 1 µM>
94.1

$$$$
